Tested on: DeltatarO mutant
assay_info: S. aureus survival, RN4220 and DeltatarO strains – OD600, teichoic acid synthesis inhibitors, primary screen (AID 463173)
run_parameters: S. aureus RN4220 wild type/DeltatarO growth, OD600, 18 h, hits give low values, screened at 18.75 µg/mL (by protocol)
Out of some 52,000 compounds screened, about 4,300 (8.3%) were called active. Shown is part of a subset that was picked to be rich in actives.
Binarize survival at 70%; below is rule met, at or above is rule not met.

{"smiles_notation": "COc1ccc(-c2nc(CSCC(=O)NCCc3ccc(C)cc3)c(C)o2)cc1OC", "label": "rule met"}
{"smiles_notation": "Cc1cccc(C(C)C)c1NC(=O)c1ccc2c(c1)CCN2S(C)(=O)=O", "label": "rule not met"}
{"smiles_notation": "Cc1oc(-c2ccccc2F)nc1CSCC(=O)NCc1ccccc1", "label": "rule met"}
{"smiles_notation": "CCN(CC)CCNC(=O)c1ccc(CSc2nc3ccncc3n2Cc2cccc(F)c2)cc1", "label": "rule not met"}
{"smiles_notation": "CCOc1ccc(N(CC(=O)Nc2ccccc2CC)S(=O)(=O)c2c(C)noc2C)cc1", "label": "rule not met"}
{"smiles_notation": "Cc1ccc(CNC(=O)CSCc2nc(-c3ccc(Cl)cc3)oc2C)cc1", "label": "rule met"}
{"smiles_notation": "CCOc1ccc(-c2nc(CSCC(=O)NCc3ccc(Cl)cc3)c(C)o2)cc1", "label": "rule not met"}
{"smiles_notation": "Cc1oc(-c2ccccc2F)nc1CSCC(=O)NCCc1ccccc1", "label": "rule not met"}
{"smiles_notation": "Cc1ccc(CCNC(=O)CSCc2nc(-c3ccc(C)cc3)oc2C)cc1", "label": "rule met"}
{"smiles_notation": "CCOc1ccc(-c2nc(CSCC(=O)NCc3ccc(C)cc3)c(C)o2)cc1", "label": "rule not met"}

###

Tested on: DeltatarO mutant
assay_info: S. aureus survival, RN4220 and DeltatarO strains – OD600, teichoic acid synthesis inhibitors, primary screen (AID 463173)
run_parameters: S. aureus RN4220 wild type/DeltatarO growth, OD600, 18 h, screened at 18.75 µg/mL (by protocol)
Screen size: about 52,000 compounds; about 4,300 (8.3%) were called active. Cut-off read from the data, not from the text of the source: active = survival mostly below about 52% (no sharp cut-off); inactive = mostly above about 56%. Many of the other results were omitted from the sample, so actives are more common in it than they were.
Possible outcomes: active, inactive

{"compound": "O=C(NCCc1nc2ccccc2n1Cc1ccc(Cl)cc1)c1ccccc1", "study_system": "DeltatarO mutant", "label": "inactive"}
{"compound": "CCc1ccc(CNC(=O)CCCn2ccc3cc(S(=O)(=O)N4CCCC4)ccc32)cc1", "study_system": "DeltatarO mutant", "label": "inactive"}
{"compound": "Cc1ccc2c(c1)c(=O)c1ccccc1n2CCCC(=O)Nc1c(F)cccc1F", "study_system": "DeltatarO mutant", "label": "inactive"}
{"compound": "CCOc1ccc(-c2nonc2NC(=O)c2oc3ccc(Br)cc3c2C)cc1", "study_system": "DeltatarO mutant", "label": "inactive"}
{"compound": "Cc1ccc(CNC(=O)Cn2c(-c3cccs3)cc3cc(Cl)ccc32)cc1", "study_system": "DeltatarO mutant", "label": "inactive"}
{"compound": "Cc1cccc(Cn2c(COc3ccccc3)nc3ccccc32)c1", "study_system": "DeltatarO mutant", "label": "active"}
{"compound": "Cc1ccc2c(=O)cc(C(=O)Nc3c(C)cccc3C)oc2c1", "study_system": "DeltatarO mutant", "label": "active"}
{"compound": "Cc1ccc2oc(C(=O)Nc3c(C(=O)Nc4cccc(Cl)c4)oc4ccccc34)cc(=O)c2c1", "study_system": "DeltatarO mutant", "label": "inactive"}
{"compound": "O=C(Cn1ccc2cc(S(=O)(=O)N3CCCCC3)ccc21)NCc1cccc(Cl)c1", "study_system": "DeltatarO mutant", "label": "inactive"}
{"compound": "CCc1ccc(NC(=O)CC2C(=O)N(c3ccc(OC)cc3)C(=O)N2Cc2ccc(OC)cc2)cc1 (configuration not stated)", "study_system": "DeltatarO mutant", "label": "inactive"}
{"compound": "Cn1c(=O)c2c(-c3ccccc3)n3c4ccccc4nc(-c4ccccc4)c3c2n(C)c1=O", "study_system": "DeltatarO mutant", "label": "inactive"}
{"compound": "CCCc1cc(N2CCN(c3ccccc3F)CC2)n2cnnc2n1", "study_system": "DeltatarO mutant", "label": "inactive"}
{"compound": "Cc1cc(C)c2oc(C(=O)Nc3c(C(=O)c4ccccc4)oc4ccccc34)cc(=O)c2c1", "study_system": "DeltatarO mutant", "label": "inactive"}
{"compound": "CC(O)c1nc2ccccc2n1Cc1ccccc1 (configuration not stated)", "study_system": "DeltatarO mutant", "label": "inactive"}
{"compound": "CCn1c(COc2ccc(Cl)cc2Cl)nc2ccccc21", "study_system": "DeltatarO mutant", "label": "inactive"}
{"compound": "O=C(Cn1c(-c2ccccc2)noc1=O)Nc1cccc(Cl)c1Cl", "study_system": "DeltatarO mutant", "label": "inactive"}
{"compound": "Cc1[nH]c2c(C)cccc2c1CCNC(=O)c1cc2ccccc2oc1=O", "study_system": "DeltatarO mutant", "label": "inactive"}
{"compound": "COc1ccc2oc(=O)c(C(=O)Nc3ccc(O)cc3)cc2c1", "study_system": "DeltatarO mutant", "label": "inactive"}
{"compound": "COC(=O)c1ccc(NC(=O)c2cc(=O)c3ccc(C)cc3o2)cc1", "study_system": "DeltatarO mutant", "label": "inactive"}
{"compound": "CC(C)OCCCNC(=O)CCCn1c(SCC(N)=O)nc2c(sc3ccccc32)c1=O", "study_system": "DeltatarO mutant", "label": "inactive"}
{"compound": "O=C(COc1ccccc1[N+](=O)[O-])N1CCC(c2nc3ccccc3o2)CC1", "study_system": "DeltatarO mutant", "label": "inactive"}
{"compound": "COc1ccc(CNC(=O)CCCn2ccc3cc(S(=O)(=O)N4CCCC4)ccc32)cc1", "study_system": "DeltatarO mutant", "label": "inactive"}
{"compound": "Cc1ccc(Cn2c(CNC(=O)c3cccc(C)c3)nc3ccccc32)cc1", "study_system": "DeltatarO mutant", "label": "inactive"}
{"compound": "Cc1ccc2c(=O)cc(C(=O)Nc3nnc(C)s3)oc2c1", "study_system": "DeltatarO mutant", "label": "inactive"}
{"compound": "COc1cccc(C(=O)Nc2ccc(C(=O)OCc3cc(=O)n4cc(C)sc4n3)cc2)c1", "study_system": "DeltatarO mutant", "label": "inactive"}
{"compound": "CCOC(=O)c1c(NC(=O)c2cc(=O)c3cc(C)cc(C)c3o2)sc(C)c1C", "study_system": "DeltatarO mutant", "label": "active"}
{"compound": "CCOc1ccc(CCNC(=O)CCn2c(=O)c3cccn3c3cccnc32)cc1", "study_system": "DeltatarO mutant", "label": "inactive"}
{"compound": "Cc1ccc(Cn2c(CCNC(=O)C(C)C)nc3ccccc32)cc1", "study_system": "DeltatarO mutant", "label": "inactive"}
{"compound": "O=C(Cn1ncc2c3ccccc3n(Cc3ccccc3F)c2c1=O)NCCCc1ccccc1", "study_system": "DeltatarO mutant", "label": "inactive"}
{"compound": "O=C(Nc1c(C(=O)Nc2cccc(C(F)(F)F)c2)oc2ccccc12)c1cc(=O)c2ccccc2o1", "study_system": "DeltatarO mutant", "label": "inactive"}
{"compound": "Cc1cc(C)c(NS(=O)(=O)c2ccc(-c3coc(C)n3)cc2)c(C)c1", "study_system": "DeltatarO mutant", "label": "inactive"}
{"compound": "CN(C)c1ccc(CNC(=O)CCCn2ccc3cc(S(=O)(=O)N4CCCC4)ccc32)cc1", "study_system": "DeltatarO mutant", "label": "active"}
{"compound": "Cn1c2ccccc2c2nnc(SCC(N)=O)nc21", "study_system": "DeltatarO mutant", "label": "inactive"}
{"compound": "CC(C)(C)c1ccc(Cn2c(Cc3ccccc3)nc3ccccc32)cc1", "study_system": "DeltatarO mutant", "label": "active"}
{"compound": "CC1CCN(S(=O)(=O)c2ccc3c(ccn3CCC(=O)NCc3ccccc3F)c2)CC1", "study_system": "DeltatarO mutant", "label": "active"}
{"compound": "CCc1ccccc1NC(=O)c1nnn(-c2ccc(F)cc2)c1C", "study_system": "DeltatarO mutant", "label": "inactive"}
{"compound": "Cc1ccc(NC(=O)CCCn2c3ccccc3c(=O)c3cc(C)ccc32)c(Br)c1", "study_system": "DeltatarO mutant", "label": "active"}
{"compound": "Cc1cc(F)ccc1NC(=O)c1csc2c1CCC(C)C2 (configuration not stated)", "study_system": "DeltatarO mutant", "label": "inactive"}
{"compound": "Cc1cc(C)c2oc(C(=O)Nc3c(C(=O)Nc4ccccc4)oc4ccccc34)cc(=O)c2c1", "study_system": "DeltatarO mutant", "label": "active"}
{"compound": "CC1CCN(S(=O)(=O)c2ccc3c(ccn3CC(=O)NCc3ccccc3F)c2)CC1", "study_system": "DeltatarO mutant", "label": "inactive"}
{"compound": "Cc1cccc(CNC(=O)Cn2ccc3cc(S(=O)(=O)N4CCCC4)ccc32)c1", "study_system": "DeltatarO mutant", "label": "inactive"}
{"compound": "CCC1CCCCN1CC(=O)Nc1cc(C)c2c(=O)oc3ccccc3c2n1 (configuration not stated)", "study_system": "DeltatarO mutant", "label": "inactive"}

FYI, the data here is from PubChem BioAssay AID463173.
